target: SLC6A8 (Homo sapiens); construct: expressed in transfected cells; host or cells: Jump In T-REx HEK293 (general cell-line paragraph); test: RESOLUTE assay on SLC6A8; assay type: cell-based
Sequence (P48029 whole entry): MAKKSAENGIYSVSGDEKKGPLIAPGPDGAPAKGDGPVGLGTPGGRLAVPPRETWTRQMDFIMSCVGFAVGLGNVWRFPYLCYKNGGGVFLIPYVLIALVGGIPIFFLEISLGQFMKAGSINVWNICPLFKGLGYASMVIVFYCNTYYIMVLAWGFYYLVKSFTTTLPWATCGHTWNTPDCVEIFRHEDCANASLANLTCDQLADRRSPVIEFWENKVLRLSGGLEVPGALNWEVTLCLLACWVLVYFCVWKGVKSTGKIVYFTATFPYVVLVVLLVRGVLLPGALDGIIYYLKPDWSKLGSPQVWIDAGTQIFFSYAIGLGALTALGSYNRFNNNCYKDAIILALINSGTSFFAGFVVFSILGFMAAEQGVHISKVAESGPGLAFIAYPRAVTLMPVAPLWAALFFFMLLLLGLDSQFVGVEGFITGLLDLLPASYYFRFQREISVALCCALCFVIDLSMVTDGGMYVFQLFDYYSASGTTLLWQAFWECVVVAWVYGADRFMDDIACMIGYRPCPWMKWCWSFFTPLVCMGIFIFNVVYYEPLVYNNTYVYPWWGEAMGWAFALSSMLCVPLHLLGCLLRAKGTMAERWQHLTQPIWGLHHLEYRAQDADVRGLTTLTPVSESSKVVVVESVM
pIC50: −log10 of the molar value.
observedProperty: pIC50

Which measured pIC50 value corresponds to C=C(C)[C@H]1CN[C@H](C(=O)O)[C@H]1CC(=O)O [Kainic acid] ?
< 5.50

----------
molecular target: SLC6A2 (Homo sapiens, UniProt P23975); experiment: Impedance-based TRACT assay, HEK293–JumpIn–NET (SLC6A2) cells; type: cell-based; parameters: expressed in transfected cells; host or cells: Jump In T-REx HEK293; conditions: approximate value stated in text; read-out: IC50, SLC6A2
Sequence (P23975 whole entry): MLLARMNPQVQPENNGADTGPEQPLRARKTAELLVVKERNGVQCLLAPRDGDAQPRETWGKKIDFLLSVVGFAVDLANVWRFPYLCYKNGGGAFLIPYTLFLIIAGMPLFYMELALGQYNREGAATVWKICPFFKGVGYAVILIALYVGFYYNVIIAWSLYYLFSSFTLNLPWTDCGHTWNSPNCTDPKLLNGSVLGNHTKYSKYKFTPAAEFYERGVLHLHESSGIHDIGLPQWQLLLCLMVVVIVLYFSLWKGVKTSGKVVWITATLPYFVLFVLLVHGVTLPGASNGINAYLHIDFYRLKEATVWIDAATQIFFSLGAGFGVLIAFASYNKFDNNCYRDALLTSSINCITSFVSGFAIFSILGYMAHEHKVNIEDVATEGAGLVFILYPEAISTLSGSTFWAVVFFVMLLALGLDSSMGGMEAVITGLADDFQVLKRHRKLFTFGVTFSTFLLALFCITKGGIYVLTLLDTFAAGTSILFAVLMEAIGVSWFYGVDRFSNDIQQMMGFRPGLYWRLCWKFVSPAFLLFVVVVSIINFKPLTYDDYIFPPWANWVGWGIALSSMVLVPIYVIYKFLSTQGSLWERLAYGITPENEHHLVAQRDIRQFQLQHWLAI
pIC50: −log10 of the molar value.
observedProperty: pIC50

Can you look up pIC50 on SLC6A2 (Homo sapiens, UniProt P23975) for N#Cc1ccc(Nc2cnccc2SCc2ccccc2C(=O)O)c2ccccc12 [KPH2f] ?
~6.00

----------
molecular target: SLC13A3 (Homo sapiens, UniProt Q8WWT9); construct: expressed in transfected cells; host or cells: Jump In T-REx HEK293 (general cell-line paragraph); assay: RESOLUTE assay on SLC13A3; type: cell-based
Sequence (Q8WWT9 whole entry): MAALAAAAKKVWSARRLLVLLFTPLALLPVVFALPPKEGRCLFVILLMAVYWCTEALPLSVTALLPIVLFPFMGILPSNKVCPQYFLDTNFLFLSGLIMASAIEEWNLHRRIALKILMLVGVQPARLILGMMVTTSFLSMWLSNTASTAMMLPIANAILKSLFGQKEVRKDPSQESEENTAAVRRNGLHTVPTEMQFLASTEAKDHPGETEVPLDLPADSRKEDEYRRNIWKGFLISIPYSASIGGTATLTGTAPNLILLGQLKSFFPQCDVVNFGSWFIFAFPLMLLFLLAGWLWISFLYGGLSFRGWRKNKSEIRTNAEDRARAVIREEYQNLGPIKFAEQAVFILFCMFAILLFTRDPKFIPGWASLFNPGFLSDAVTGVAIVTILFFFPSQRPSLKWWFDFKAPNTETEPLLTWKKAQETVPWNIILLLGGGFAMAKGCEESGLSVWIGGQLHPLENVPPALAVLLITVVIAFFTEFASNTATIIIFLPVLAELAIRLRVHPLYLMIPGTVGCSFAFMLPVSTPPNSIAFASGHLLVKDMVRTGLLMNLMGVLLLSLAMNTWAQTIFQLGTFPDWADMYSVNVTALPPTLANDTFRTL
pIC50: −log10 of the molar value.
observedProperty: pIC50

State the recorded pIC50 for this entry: C=C(C)[C@H]1CN[C@H](C(=O)O)[C@H]1CC(=O)O [Kainic acid]
< 5.50

----------
target: SLC1A3 (Homo sapiens, UniProt P43003); test: Echo-MS assay, uptake of labeled glutamic acid in dox-induced HEK293–JumpIn–SLC1A3 (EAAT1) cells; format: cell-based; parameters: expressed in transfected cells; host or cells: Jump In T-REx HEK293; details: target SLC1A3, assay EchoMS; read-out: pIC50 (act) (converted)
Sequence (P43003 whole entry): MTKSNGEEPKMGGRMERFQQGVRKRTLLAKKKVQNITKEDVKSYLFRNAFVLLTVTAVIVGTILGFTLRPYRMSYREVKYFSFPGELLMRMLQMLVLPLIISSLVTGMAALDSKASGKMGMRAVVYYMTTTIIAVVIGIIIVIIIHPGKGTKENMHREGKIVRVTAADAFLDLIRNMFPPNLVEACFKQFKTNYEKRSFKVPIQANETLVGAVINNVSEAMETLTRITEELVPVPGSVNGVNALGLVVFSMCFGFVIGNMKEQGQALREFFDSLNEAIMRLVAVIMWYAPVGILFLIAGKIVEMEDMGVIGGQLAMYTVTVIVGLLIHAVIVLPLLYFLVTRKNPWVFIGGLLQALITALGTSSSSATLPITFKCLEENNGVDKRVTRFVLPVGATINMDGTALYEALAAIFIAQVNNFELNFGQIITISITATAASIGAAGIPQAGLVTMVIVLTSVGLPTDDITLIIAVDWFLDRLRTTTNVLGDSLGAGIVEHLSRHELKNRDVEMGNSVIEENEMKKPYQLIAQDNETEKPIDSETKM
observedProperty: IC50

The examples below pair each entry with its known result.
{"smi": "N#Cc1ccc(Nc2cnccc2SCc2ccccc2C(=O)O)c2ccccc12", "IC50": "> 30 µM"}
{"smi": "Nc1nc2ccc(OC(F)(F)F)cc2s1", "IC50": "> 30 µM"}

Proceeding to the next molecule to report its IC50.
Given `Cc1c(NC(=O)c2cc(C(N)=O)nc3cc(F)ccc23)c(C(F)(F)F)nn1Cc1ccc(C#N)cc1` , state its recorded IC50.
> 30 µM

----------
target: SLC7A3 (Homo sapiens, UniProt Q8WY07); construct: expressed in transfected cells; host or cells: Jump In T-REx HEK293 (general cell-line paragraph); test: RESOLUTE assay on SLC7A3; assay type: cell-based; details: Flipr Membrane Potential-Blue-Dye; read-out: pIC50 (act), SLC7A3 (converted)
Sequence (Q8WY07 whole entry): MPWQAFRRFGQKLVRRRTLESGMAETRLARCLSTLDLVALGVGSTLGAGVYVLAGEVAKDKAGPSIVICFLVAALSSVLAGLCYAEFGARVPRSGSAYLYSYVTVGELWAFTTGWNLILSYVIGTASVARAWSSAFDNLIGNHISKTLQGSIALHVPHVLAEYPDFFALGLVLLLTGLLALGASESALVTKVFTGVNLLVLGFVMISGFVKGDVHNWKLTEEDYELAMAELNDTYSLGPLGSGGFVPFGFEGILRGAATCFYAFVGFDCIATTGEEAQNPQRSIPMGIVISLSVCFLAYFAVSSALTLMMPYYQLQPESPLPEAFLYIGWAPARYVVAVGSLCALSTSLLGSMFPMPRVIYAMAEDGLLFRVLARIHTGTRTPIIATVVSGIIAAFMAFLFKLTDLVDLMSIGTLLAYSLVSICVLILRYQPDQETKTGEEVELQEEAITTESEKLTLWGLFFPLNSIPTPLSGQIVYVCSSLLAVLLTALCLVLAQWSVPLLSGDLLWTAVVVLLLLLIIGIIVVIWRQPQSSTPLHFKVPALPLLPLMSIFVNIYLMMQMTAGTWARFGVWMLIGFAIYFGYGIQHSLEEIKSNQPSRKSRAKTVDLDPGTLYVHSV
IC50 values for the molecules below.

# count of solved cases: 4
{"molecule": "Fc1ccc(C(OCCN2CCN(CCCc3ccccc3)CC2)c2ccc(F)cc2)cc1", "system": "SLC7A3 (Homo sapiens, UniProt Q8WY07)", "result": "> 3.16 µM"}
{"molecule": "COc1ccc(C2C(C#N)=C(N)OC3=C2C(=O)CC(c2cccc4ccccc24)C3)cc1 (centres unmarked)", "system": "SLC7A3 (Homo sapiens, UniProt Q8WY07)", "result": "> 3.16 µM"}
{"molecule": "Nc1nc2ccc(OC(F)(F)F)cc2s1", "system": "SLC7A3 (Homo sapiens, UniProt Q8WY07)", "result": "> 3.16 µM"}
{"molecule": "N[C@H](C(=O)O)[C@H](OCc1cccc(NC(=O)c2ccc(C(F)(F)F)cc2)c1)C(=O)O", "system": "SLC7A3 (Homo sapiens, UniProt Q8WY07)", "result": "> 3.16 µM"}

# input molecule: `Cc1ccsc1C(=CCCN1CCC[C@@H](C(=O)O)C1)c1sccc1C` ; wanted: its IC50
> 3.16 µM

Report IC50 for CC1C(C#N)=C(N)OC2=C1C(=O)CC(c1cccc3ccccc13)C2 (centres unmarked) please.
> 3.16 µM

Fill in the blank: the reported IC50 of NC(C(=O)O)C(OCc1ccccc1)C(=O)O (centres unmarked) is ____.
> 3.16 µM

Given the entry `N[C@@H](CC(=O)Nc1ccc(Oc2cc(F)c(F)cc2Br)cc1)C(=O)O` , report its measured IC50.
> 3.16 µM
